Data provenance: ChEMBL document CHEMBL1137111

system: Plasmodium falciparum; assay: Antimalarial activity against chloroquine-sensitive Plasmodium falciparum D10; format: functional, organism-based
ASSAY READOUT: IC50 (nM)

>>> test_result("O=C(CN(CCCNc1ccnc2cc(Cl)ccc12)C(=O)c1ccc(O)cc1O)NC1CCCCC1")
1670
>>> test_result("CC(C)(C)NC(=O)CN(CCCNc1ccnc2cc(Cl)ccc12)C(=O)c1cnccn1")
1370
>>> test_result("O=C(CN(CCCNc1ccnc2cc(Cl)ccc12)C(=O)c1cnccn1)NC1CCCCC1")
240
>>> test_result("CC(C)(C)NC(=O)CN(CCNc1ccnc2cc(Cl)ccc12)C(=O)c1ccncc1")
1060
>>> test_result("CC(C)(C)NC(=O)CN(CCNc1ccnc2cc(Cl)ccc12)C(=O)c1cnccn1")
710
